molecular target: small-conductance Ca2+-activated K+ channels (SK channels, subtype 2) (Homo sapiens, UniProt Q9H2S1); construct: expressed in transfected cells; host or cells: HEK293; experiment: whole-cell patch-clamp of ionic current through SK2 channels in HEK293 cells (SC100); type: cell-based; settings: concentration that increases the basal current by 100%; HEK293 cells expressing SK2 channels
test_readout: SC100

Before answering, review these 5 worked examples.
compound	SC100
Cc1ccn(-c2cc(S(C)(=O)=O)cc(NC3CCC(F)(F)CC3)n2)n1	+ (+ means >1 uM)
Cc1cc(NC2CCC(C(F)(F)F)CC2)nc(-n2ccc(C)n2)n1 (stereo not shown)	+ (+ means >1 uM)
O=C(NCc1cc(NC2CCC(F)(F)CC2)nc(-n2ccc(CF)n2)n1)C1CCC1	+ (+ means >1 uM)
Cc1cc(C)n(-c2nc(NC3CCC(F)(F)C3)cc(C(N)=O)n2)n1 (stereo not shown)	+ (+ means >1 uM)
FCc1ccn(-c2nc(NC3CCC(F)(F)CC3)cc(OC3COC3)n2)n1	+ (+ means >1 uM)

Output measured SC100 for this item: O=C(N1CC(Oc2cc(NC3CCC(F)(F)CC3)nc(-n3ccc(CO)n3)n2)C1)C(F)(F)F
+ (+ means >1 uM)

Respond only with SC100 recorded for Cc1ccn(-c2nc(NC3CCC(F)(F)CC3)cc(OC3CN(C(=O)C(C)(C)C)C3)n2)n1
+++ (+++ means <200 nM)

Provide measured SC100 value, entry: Cc1cc(C)n(-c2nc(N[C@H]3CCCC(F)(F)C3)cc([C@H](C)O)n2)n1
+ (+ means >1 uM)

Please list SC100 recorded for the compound CC(C)(C)C(=O)N1CC(Oc2cc(NC3CCC(F)(F)CC3)nc(-c3nc(CF)cs3)n2)C1
+++ (+++ means <200 nM)

Report SC100, nothing else, for this compound: Cc1cc(NC2CCC(F)(F)CC2)nc(-n2cc(C)c(CO)n2)n1
+ (+ means >1 uM)

Assign SC100 to the following record: Cc1cc(C)n(-c2cc(NC3CCN(C)C3=O)cc(NC3CCC(F)(F)CC3)n2)n1 (racemic)
+ (+ means >1 uM)

Answer with the recorded SC100 for the compound listed here: Cc1cc(C)n(-c2nccc(NC3CCC(F)(F)CC3)n2)n1
+ (+ means >1 uM)

====

test: brain concentration by mass spectrometry from brains harvested after tremor recording; free brain concentration and % SK2 SC100; format: in vivo, Male Sprague Dawley rats; settings: male, Sprague Dawley, rat, oral, 30 mg/Kg, CFB=CMB×BFF, read-out: Calculated Free Brain Concentration
test_readout: concentration at 90 min (nM)
Kindly provide the numeric value in nM only, without the unit symbol.

Entry Cc1ccn(-c2nc(NC3CCC(F)(F)CC3)cc(N3CCOCC3)n2)n1 needs its concentration at 90 min filled in; supply it.
80

====

target: small-conductance Ca2+-activated K+ channels (SK channels, subtype 2) (Homo sapiens, UniProt Q9H2S1); construct: expressed in transfected cells; host or cells: HEK293; experiment: whole-cell patch-clamp of ionic current through SK2 channels in HEK293 cells (SC100); type: cell-based; details: concentration that increases the basal current by 100%; HEK293 cells expressing SK2 channels

compound	SC100
Cc1cc(C)n(-c2cccc(N(C)C3CCC(F)(F)CC3)n2)n1 [Compound 166]	+ (+ means >1 uM)
Cc1cc(NC2CCC(F)(F)CC2)nc(-c2cccc(Cl)n2)n1 [Compound 230]	+ (+ means >1 uM)
